The reported measurements were obtained from patent US20240150473A1.

# koff values compiled below
- tested_system: T1, Lrp6E3E4 domain (Homo sapiens, UniProt O75581)
- T1 sequence (O75581 631-1244 limits assumed): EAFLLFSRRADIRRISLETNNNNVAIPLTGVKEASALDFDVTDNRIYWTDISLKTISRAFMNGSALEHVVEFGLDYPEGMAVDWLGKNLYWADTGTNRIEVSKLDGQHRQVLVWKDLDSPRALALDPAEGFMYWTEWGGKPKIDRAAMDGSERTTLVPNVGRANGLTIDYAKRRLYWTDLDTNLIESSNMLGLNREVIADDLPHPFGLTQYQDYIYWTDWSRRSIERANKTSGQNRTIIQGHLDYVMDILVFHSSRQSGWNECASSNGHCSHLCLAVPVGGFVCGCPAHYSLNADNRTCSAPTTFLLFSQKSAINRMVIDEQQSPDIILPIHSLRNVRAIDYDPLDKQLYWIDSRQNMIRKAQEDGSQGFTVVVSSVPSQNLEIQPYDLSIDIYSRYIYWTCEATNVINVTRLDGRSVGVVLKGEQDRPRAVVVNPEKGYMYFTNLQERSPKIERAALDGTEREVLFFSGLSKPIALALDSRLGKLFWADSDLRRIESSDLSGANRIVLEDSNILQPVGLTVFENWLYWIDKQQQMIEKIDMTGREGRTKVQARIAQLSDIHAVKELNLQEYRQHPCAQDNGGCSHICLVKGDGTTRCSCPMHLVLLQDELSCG
- assay_notes: Bio-layer interferometry (Octet) binding kinetics of VHH26 constructs
- experimental_conditions: SEC fraction C1/G1 (parental D3); 1:1 binding model
Just the number.

Past entries and their recorded results:
VHH26-H2: humanized variant of LRP6 binding VHH26, SEQ ID NO: 20 (protein, VHH26_H2) VHH: EVQLVESGGGLVQPGGSLRLSCAGSGRIFAIYDIAWYRQAPGKGLEWVAMIRPVVTEIDYADSVKGRFTISRDNSKNTVYLQMNSLRAEDTAVYYCNAKRPWGSRDEYWGQGTTVTVSS ... 6.53E−02
VHH26-H4: humanized variant of LRP6 binding VHH26, SEQ ID NO: 22 [VHH26-H4] (protein, VHH26_H4) VHH: EVQLVESGGGLVQPGGSLRLSCAGSGRIFAIYDIAWYRQAPGKGRELVAMIRPVVTEIDYADSVKGRFTISRDNSKNTVYLQMNSLRAEDTAVYYCNAKRPWGSRDEYWGQGTTVTVSS ... 9.51E−02
VHH26-H5: humanized variant of LRP6 binding VHH26, SEQ ID NO: 23 (protein, VHH26_H5) VHH: EVQLVESGGGLVQPGGSLRLSCAGSGRIFAIYDIAWYRQAPGKGREWVAMIRPVVTEIDYADSVKGRFTISRDNSKKTVYLQMNSLRAEDTAVYYCNAKRPWGSRDEYWGQGTTVTVSS ... 1.77E−02

input: // query koff value for entry VHH26 (parental): parental camelid LRP6 binding VHH, SEQ ID NO: 25 (protein, VHH26 (parental)) VHH: DVQLVESGGGLVQAGGSLRLACAGSGRIFAIYDIAWYRHPPGNQRELVAMIRPVVTEIDYADSVKGRFTISRNNAMKTVYLQMNNLKPEDTAVYYCNAKRPWGSRDEYWGQGTQVTVSS
output: 1.77E−02

input: Please answer likewise for VHH26-H6: humanized variant of LRP6 binding VHH26, SEQ ID NO: 24 [VHH26-H6] (protein, VHH26_H6) VHH: EVQLVESGGGLVQPGGSLRLSCAGSGRIFAIYDIAWYRQAPGKGRELVAMIRPVVTEIDYADSVKGRFTISRDNSKKTVYLQMNSLRAEDTAVYYCNAKRPWGSRDEYWGQGTTVTVSS
output: 3.11E−02

input: Please answer likewise for VHH26-H3: humanized variant of LRP6 binding VHH26, SEQ ID NO: 21 (protein, VHH26_H3) VHH: EVQLVESGGGLVQPGGSLRLSCAGSGRIFAIYDIAWYRQAPGKGREWVAMIRPVVTEIDYADSVKGRFTISRDNSKNTVYLQMNSLRAEDTAVYYCNAKRPWGSRDEYWGQGTTVTVSS
output: 5.22E−02
